- ASSAY: Partition coefficient, log P of the compound
- Type: physicochemical
- CONDITION LABEL: octanol/water
Entries annotated with measured logP
# answer = number (no unit)

Some molecules with recorded logP:
MOLECULE	logP
FC(F)(F)c1cc(C2CNCCNCCNCCN2)cc(C(F)(F)F)c1 (stereo not drawn)	1.7
COc1ccc(C2CNCCNCCNCCN2)cc1 (stereo not drawn)	-0.1
c1ccc2cc(C3CNCCNCCNCCN3)ccc2c1 (stereo not drawn)	1
Brc1ccc(C2CNCCNCCNCCN2)cc1 (stereo not drawn)	0.7
O=[N+]([O-])c1ccc(C2CNCCNCCNCCN2)cc1 (stereo not drawn)	-0.4
c1ccc(C2CNCCNCCNCCN2)cc1 (stereo not drawn)	-0.2
c1ccc2c(c1)Cc1cc(C3CNCCNCCNCCN3)ccc1-2 (stereo not drawn)	1.8
c1csc(C2CNCCNCCNCCN2)c1 (stereo not drawn)	-0.4
C1CNCCNCCNCCN1	-1.8
FC(F)(F)c1ccc(C2CNCCNCCNCCN2)cc1 (stereo not drawn)	0.8

Item under review: CC(C)(C)C1CNCCNCCNCCN1 (stereo not drawn) . Reported logP?
-0.1

Item under review: Clc1ccc(C2CNCCNCCNCCN2)cc1 (stereo not drawn) . Reported logP?
0.8

Item under review: c1ccc2c(c1)ccc1cc(C3CNCCNCCNCCN3)ccc12 (stereo not drawn) . Reported logP?
2.2

====

Entries annotated with measured pEC50
- ASSAY: Cytotoxicity against HEK cells
- Type: cell-based
- CONDITION LABEL: Homo sapiens, HEK293
Quick note: pEC50 means taking -log10 of the concentration in moles per liter.

Some compounds with recorded pEC50:
COMPOUND	pEC50
FC(F)(F)c1cc(C2CNCCNCCNCCN2)cc(C(F)(F)F)c1 (configuration not stated)	4.21
FC(F)(F)c1ccc(C2CNCCNCCNCCN2)cc1 (configuration not stated)	4.14
Clc1ccc(C2CNCCNCCNCCN2)cc1 (configuration not stated)	3.74
C1CNCCNCCNCCN1	5.30

Kindly consider the entry below.
Item under review: c1ccc2c(c1)Cc1cc(C3CNCCNCCNCCN3)ccc1-2 (configuration not stated) . Reported pEC50?
4.59

====

- System: Plasmodium falciparum
- ASSAY: Antiprotozoal activity against Plasmodium falciparum
- Assay type: functional, organism-based
// assign rule met if EC50 falls strictly below 6 µM, else rule not met (ties count as rule not met)

# count of solved cases: 10
COMPOUND	LABEL VALUE
CCN(CC)CCCC(C)Nc1ccnc2cc(Cl)ccc12 (centres undefined)	rule met
c1csc(C2CNCCNCCNCCN2)c1 (centres undefined)	rule not met
FC(F)(F)c1cc(C2CNCCNCCNCCN2)cc(C(F)(F)F)c1 (centres undefined)	rule met
c1ccc(C2CNCCNCCNCCN2)cc1 (centres undefined)	rule not met
C1CNCCNCCNCCN1	rule not met
c1ccc2c(c1)Cc1cc(C3CNCCNCCNCCN3)ccc1-2 (centres undefined)	rule met
FC(F)(F)c1ccc(C2CNCCNCCNCCN2)cc1 (centres undefined)	rule met
O=[N+]([O-])c1ccc(C2CNCCNCCNCCN2)cc1 (centres undefined)	rule not met
c1ccc2cc(C3CNCCNCCNCCN3)ccc2c1 (centres undefined)	rule met
COc1ccc(C2CNCCNCCNCCN2)cc1 (centres undefined)	rule not met

EC50 under 6 µM? Item: Clc1ccc(C2CNCCNCCNCCN2)cc1 (centres undefined)
rule met

EC50 under 6 µM? Item: c1ccc2c(c1)ccc1cc(C3CNCCNCCNCCN3)ccc12 (centres undefined)
rule met

EC50 under 6 µM? Item: Brc1ccc(C2CNCCNCCNCCN2)cc1 (centres undefined)
rule met

EC50 under 6 µM? Item: CC(C)(C)C1CNCCNCCNCCN1 (centres undefined)
rule not met

Taken from ChEMBL document CHEMBL1144034.
